- Test system: UO-31 renal
- Procedure Summary: NCI tumour cell line growth inhibition, 48 h
Assign y to entries whose TGI meets or exceeds 5 µM; assign n to the rest.

Check if TGI >= 5 µM (inclusive). Item: Cc1ccc(C2(N3CCCC3)OC(C)(C)c3cccc4cccc2c34)cc1 (stereo unspecified)
y

Please check the record O=C(Nc1ccccc1)c1cc(S(=O)(=O)Nc2n[nH]c(=O)[nH]2)c(SSc2cc(Cl)c(C(=O)Nc3ccccc3)cc2S(=O)(=O)Nc2n[nH]c(=O)[nH]2)cc1Cl and state if its TGI is at or above 5 µM.
y

Is reported TGI greater than or equal to 5 µM here: Cc1c(C)c2c(c(N)c1C#N)C(=O)N(OS(=O)(=O)c1ccccc1)C2=O
y

Item COC(=O)c1ccc(CCC2=CC(=O)C(Br)=CC2=O)cc1 with TGI of 5 µM or above?
y

Given the entry C=C1CC[C@@]2(C#N)[C@H]3[C@H](CC[C@@H]2C)[C@@H](C)C[C@@H](CC(C)(C)C#N)[C@H]13 , answer whether its TGI meets or surpasses 5 µM.
y

Decide: TGI of Cc1cc(C)c(O)c(CNCCCCCCNCc2cc(C)cc(C)c2O)c1 >= 5 µM?
n

API: above_or_equal(metric=TGI, cutoff=5 µM) for item N#Cc1nc(C(F)(F)F)oc1N
y

Hello, I need to know if NC(Cc1ccccc1)=NCC(=O)O has measured TGI not below 5 µM. Thanks!
y

Reported TGI reaches at least 5 µM for N#Cc1ccc(/C=N/NC(=O)CSCC(=O)N/N=C/c2ccc(C#N)cc2)cc1 ?
y

Please check the record Cc1cccc(/C=N/NC(=S)N2CCCCCC2)n1 and state if its TGI is at or above 5 µM.
y

Is TGI for CCOP(=O)(CC1CC(O)(CNc2cc(Cl)nc(N)n2)C1)OCC (stereo unspecified) at or above 5 µM?
y

Hi, just wondering whether CC(=O)c1cc2c(s1)C(=O)c1scc(C(C)=O)c1C2=O shows TGI of 5 µM or higher.
n

Decide: TGI of O=C(O)CS(=O)c1ccc2c3c(cccc13)C(=O)c1ccccc1-2 (stereo unspecified) >= 5 µM?
y

TGI >= 5 µM for O=[N+]([O-])c1ccc(Sc2c3ccccc3nc3ccccc23)cc1 ?
y

State whether the measured TGI reaches 5 µM, counting equality as reaching it, for CCCCCCCCCCC(C[N+](C)(C)C/C=C/c1ccccc1)C(O)c1ccccc1 (stereo unspecified)
n

Does the reported TGI for COc1ccc(/C=C2\CN(C(=O)C(Cl)Cl)C/C(=C\c3ccc(OC)c(OC)c3)C2=O)cc1OC fall at or above the 5 µM mark?
n

Could you verify whether the entry CCCN=C1Nc2ccccc2[C@@H]2N(C)c3ccccc3C(C)C[C@]12C (stereo partly specified) shows TGI of no less than 5 µM?
y

TGI >= 5 µM for O=c1[nH]nc(Cc2ccccc2)n1/N=C/c1ccc([N+](=O)[O-])o1 ?
y

Please tell me: is the molecule CCOC(O)C(F)(F)F (stereo unspecified) at or over 5 µM in terms of TGI?
y

Given CN1[C@@H]2CCCC[C@H]2N(C)P1(=O)C(O)/C=C/c1ccccc1 (stereo partly specified) , state whether its TGI is at least 5 µM.
y

From: PubChem BioAssay (NCI)
